system: UACC-257 melanoma; experiment: NCI tumour cell line growth inhibition, 48 h
Square brackets hold non-standard residues; d marks the D form. Peptide text beside a SMILES is read from it. * marks the point of attachment. Boc = CC(C)(C)OC(=O)*; OBn = c1ccc(CO*)cc1
Where TGI equals or exceeds 40 µM, the correct label is 1; where it does not, the label is -1.

{"columns": ["COMPOUND", "ASSIGNED CATEGORY"],
 "data": [
  ["CCC[CH2][Sn]1([CH2]CCC)[O]CC(CN2CCCCC2)[O]1 (stereo not drawn)", -1],
  ["Cc1ccccc1OC(C)C(=O)NN1C(=O)CC(=O)NC1=S (stereo not drawn)", 1],
  ["OCCCCC#Cc1ccccc1C#Cc1ccccn1", 1],
  ["O=[N+]([O-])c1ccc2c(c1)c1nn2CCCCOc2nn(c3ccc([N+](=O)[O-])cc23)CCCCO1", 1],
  ["C[C@H](C(=O)C12CC3CC(CC(C3)C1)C2)[C@H](O)c1ccccc1", 1],
  ["O=S1c2ccccc2N=C(c2cccc3ccccc23)CC1c1cccc2ccccc12 (stereo not drawn)", -1],
  ["c1cc[n+](C2c3ccccc3C([n+]3ccccc3)c3ccccc32)cc1 (stereo not drawn)", -1],
  ["CCc1n[nH]c(=O)n1/N=C/c1ccc(/C=N/n2c(CC)n[nH]c2=O)cc1", 1],
  ["C[C@@H](NC(=O)CNC(=O)OC(C)(C)C)C(=O)N[C@@H](Cc1ccccc1)C(=O)OCc1ccccc1 (Boc-Gly-[dA]-Phe-OBn)", 1],
  ["COc1ccc2c(c1)n([O-])c1cc(C#N)ccc1[n+]2=O", -1],
  ["Cc1ncc([N+](=O)[O-])n1CCn1ccnc1[N+](=O)[O-]", 1],
  ["CC(C)=CCNc1ncnc2c1c(C#N)cn2C1OC(CO)C(O)C1O (stereo not drawn)", 1],
  ["O=C(C[n+]1cccc2cc(Cl)ccc21)c1ccc2c(c1)CCCC2", -1],
  ["Nc1ccc(S(=O)(=O)c2ccc(N)cc2)cc1", 1],
  ["O=C1C[C@@H](Sc2ccccc2)C2(OCCO2)C2ON3CCCC[C@H]3[C@H]12 (stereo partly drawn)", -1],
  ["COc1nc(-c2c[nH]c3ccccc23)cnc1N", 1],
  ["CC(C)C(=O)OCN(C)c1nc(N(C)COC(=O)C(C)C)nc(N(C)COC(=O)C(C)C)n1", -1],
  ["Cc1cc2c(O)c(c1)CN(Cc1ccccc1)Cc1cc(C)cc(c1O)CN(Cc1ccccc1)Cc1cc(C)cc(c1O)CN(Cc1ccccc1)C2", 1]
]}
